Value source: patent US8946439B2

Target: hP2X3 (Homo sapiens)
Construct: expressed in transfected cells; host or cells: e.g. HEK293 or 1321N1
Sequence (P56373 1-397): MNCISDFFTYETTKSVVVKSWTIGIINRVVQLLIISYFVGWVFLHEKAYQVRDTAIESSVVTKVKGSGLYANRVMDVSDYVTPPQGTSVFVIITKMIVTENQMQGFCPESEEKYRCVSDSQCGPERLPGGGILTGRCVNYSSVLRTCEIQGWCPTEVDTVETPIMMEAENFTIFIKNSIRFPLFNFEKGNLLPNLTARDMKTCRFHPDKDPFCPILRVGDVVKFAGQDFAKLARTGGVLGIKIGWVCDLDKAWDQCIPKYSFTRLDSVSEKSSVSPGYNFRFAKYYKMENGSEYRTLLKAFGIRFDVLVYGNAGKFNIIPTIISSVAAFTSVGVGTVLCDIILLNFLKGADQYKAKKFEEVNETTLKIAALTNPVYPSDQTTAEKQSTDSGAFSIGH
Experiment: Calcium uptake assay (P2X antagonist assay), P2X3 homomer
Type: cell-based
Conditions: calcium uptake assay, hP2X3; read-out: IC50 hP2X3 (nM), Ca Influx
result type: IC50

Worked set:
Cc1ccc(-c2cc(C(=O)N[C@H](C)c3cnc(C)nc3)cc(S(=O)(=O)N3CCCC3)c2)c(C#N)c1 [Compound 147] = < 100 nM
Cc1ncc(CNC(=O)c2cc(C(=O)N3CCCC3)cc(-c3ccc(C(F)(F)F)cc3)c2)cn1 [Compound 54] = > 1000 nM

Provide the documented IC50 with hP2X3 (Homo sapiens) as the system for Cc1ccc(-c2cc(C(=O)NCc3ccc(C(F)(F)F)nc3)cc(S(C)(=O)=O)c2)cc1 [Compound 37]
100 to 500 nM

Provide the documented IC50 with hP2X3 (Homo sapiens) as the system for Cc1ccc(-c2cc(C(=O)N[C@H](C)c3ccc(C(F)(F)F)nc3)cc(C(=O)N(C)CC(C)C)c2)cc1 [Compound 10]
100 to 500 nM

Provide the documented IC50 with hP2X3 (Homo sapiens) as the system for Cc1ccc(-c2cc(C(=O)NCc3ccc(C)nc3)cc(C(=O)N3CC(O)C3)c2)c(C#N)c1 [Compound 63]
< 100 nM

* * *

Target: hP2X2/3H (Homo sapiens, UniProt P56373+Q9UBL9)
Construct: expressed in transfected cells; host or cells: e.g. HEK293 or 1321N1
Sequence (Q9UBL9 1-471): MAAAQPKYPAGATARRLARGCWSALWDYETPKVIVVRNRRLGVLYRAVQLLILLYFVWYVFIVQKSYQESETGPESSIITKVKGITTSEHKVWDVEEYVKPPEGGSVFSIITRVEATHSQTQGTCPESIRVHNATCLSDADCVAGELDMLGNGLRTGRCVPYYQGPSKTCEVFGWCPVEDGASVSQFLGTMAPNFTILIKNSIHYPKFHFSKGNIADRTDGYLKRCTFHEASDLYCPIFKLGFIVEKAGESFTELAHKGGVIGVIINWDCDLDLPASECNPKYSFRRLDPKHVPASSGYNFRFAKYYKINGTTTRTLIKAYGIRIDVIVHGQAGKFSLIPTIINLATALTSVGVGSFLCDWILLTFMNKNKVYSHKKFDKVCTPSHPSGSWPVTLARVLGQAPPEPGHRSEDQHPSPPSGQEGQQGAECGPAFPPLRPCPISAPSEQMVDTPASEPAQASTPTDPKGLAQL
Sequence (P56373 1-397): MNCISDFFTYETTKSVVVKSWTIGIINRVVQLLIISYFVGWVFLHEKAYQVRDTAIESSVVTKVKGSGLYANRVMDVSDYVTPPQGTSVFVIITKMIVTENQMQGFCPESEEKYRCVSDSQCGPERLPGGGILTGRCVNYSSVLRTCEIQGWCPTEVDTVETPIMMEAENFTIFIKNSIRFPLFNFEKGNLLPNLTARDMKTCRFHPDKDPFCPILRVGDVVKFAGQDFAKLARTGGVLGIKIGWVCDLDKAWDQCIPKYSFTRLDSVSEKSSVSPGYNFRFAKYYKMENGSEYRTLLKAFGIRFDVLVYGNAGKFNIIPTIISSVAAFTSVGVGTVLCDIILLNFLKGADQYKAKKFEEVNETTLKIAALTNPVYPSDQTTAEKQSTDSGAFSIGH
Test: Calcium uptake assay (P2X antagonist assay), P2X2/3 heteromer
Type: cell-based
Conditions: Ca influx (calcium uptake assay), hP2X2/3H; read-out: IC50 hP2X2/3H
result type: IC50

Worked set:
Cc1ncc(CNC(=O)c2cc(C(=O)N3CCCC3)cc(-c3ccc(Br)cc3)c2)cn1 [Compound 215] = 0.1 to 0.5 µM
Cc1ccc(-c2cc(C(=O)N[C@H](C)c3ccc(C)nc3)cc(C(O)c3ccccc3)c2)cc1 (some centres unmarked) [Compound 227] = < 0.1 µM
Cc1ccc(-c2cc(OCC3CCCO3)cc(C(=O)N[C@H](C)c3ccc(C)nc3)c2)c(C#N)c1 (some centres unmarked) [Compound 312] = < 0.1 µM

What does the data say about its IC50? Entry: Cc1ccc(-c2cc(C(=O)N[C@H](CO)c3ccc(C(F)(F)F)nc3)cc(S(C)(=O)=O)c2)cc1 [Compound 226]
0.1 to 0.5 µM

What does the data say about its IC50? Entry: Cc1ccc(-c2cc(OCC(O)CO)cc(C(=O)N[C@H](C)c3ccc(C)nc3)c2)nc1 (some centres unmarked) [Compound 344]
0.1 to 0.5 µM

What does the data say about its IC50? Entry: Cc1ccc(-c2cc(C(=O)N[C@@H](C)CO)cc(S(=O)(=O)C(C)C)c2)cc1 [Compound 288]
> 1 µM

What does the data say about its IC50? Entry: Cc1ccc(-c2cc(C(=O)N[C@H](C)c3cnc(C)nc3)cc(S(=O)(=O)C3CCCC3)c2)cc1 [Compound 219]
< 0.1 µM

What does the data say about its IC50? Entry: CCC(O)c1cc(C(=O)N[C@H](C)c2ccc(C)nc2)cc(-c2ccc(C)cc2)c1 (some centres unmarked) [Compound 379]
< 0.1 µM

* * *

Target: hP2X2/3H (Homo sapiens, UniProt P56373+Q9UBL9)
Construct: expressed in transfected cells; host or cells: e.g. HEK293 or 1321N1
Sequence (Q9UBL9 1-471): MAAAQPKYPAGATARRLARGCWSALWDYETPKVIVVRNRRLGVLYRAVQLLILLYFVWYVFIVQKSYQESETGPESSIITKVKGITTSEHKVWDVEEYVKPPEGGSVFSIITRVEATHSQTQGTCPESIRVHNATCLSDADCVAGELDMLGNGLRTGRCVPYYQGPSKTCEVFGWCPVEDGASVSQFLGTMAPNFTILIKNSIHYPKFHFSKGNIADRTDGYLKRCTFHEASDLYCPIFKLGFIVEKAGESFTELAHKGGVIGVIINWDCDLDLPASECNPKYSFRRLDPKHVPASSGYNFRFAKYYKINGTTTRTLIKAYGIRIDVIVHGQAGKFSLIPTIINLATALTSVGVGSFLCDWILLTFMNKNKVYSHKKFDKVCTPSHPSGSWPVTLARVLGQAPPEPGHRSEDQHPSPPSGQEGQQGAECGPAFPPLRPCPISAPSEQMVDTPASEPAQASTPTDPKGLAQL
Sequence (P56373 1-397): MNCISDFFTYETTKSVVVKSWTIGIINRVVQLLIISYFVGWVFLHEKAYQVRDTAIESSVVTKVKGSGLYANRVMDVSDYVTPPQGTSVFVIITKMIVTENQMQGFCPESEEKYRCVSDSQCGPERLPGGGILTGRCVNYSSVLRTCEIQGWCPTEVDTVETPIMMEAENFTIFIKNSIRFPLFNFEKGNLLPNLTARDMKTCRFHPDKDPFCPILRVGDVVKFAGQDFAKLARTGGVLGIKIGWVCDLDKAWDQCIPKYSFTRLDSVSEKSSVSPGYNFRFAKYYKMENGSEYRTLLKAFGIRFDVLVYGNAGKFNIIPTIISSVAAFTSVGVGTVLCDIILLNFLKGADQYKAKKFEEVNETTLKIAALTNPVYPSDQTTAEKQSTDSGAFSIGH
Assay: Calcium uptake assay (P2X antagonist assay), P2X2/3 heteromer
Assay type: cell-based
Conditions: calcium uptake assay, hP2X2/3H; read-out: IC50 hP2X2/3H (nM), Ca Influx
IC50 listing for selected compounds.

Worked set:
Cc1ccc(-c2cc(C(=O)NCc3ccc(Cl)nc3)cc(C(=O)N(C)CC(C)C)c2)cc1 [Compound 9] = < 100 nM
Cc1ccc(-c2cc(C(=O)NCc3cnc(C)nc3)cc(C(=O)N3CC(F)(F)C3)c2)cc1 [Compound 17] = < 100 nM
Cc1ccc(-c2cc(C(=O)NCc3ncc(Cl)cc3Cl)cc(C(=O)N3CCCC3)c2)cc1 [Compound 81] = < 100 nM
Cc1ccc(-c2cc(C(=O)NCc3ccc(C)nc3)cc(S(=O)(=O)N3CCCC3)c2)c(C#N)c1 [Compound 148] = > 1000 nM
Cc1ccc(-c2cc(C(=O)NCc3ccc(C)nc3)cc(C(=O)N3CC[C@@H](N(C)C)C3)c2)cc1 [Compound 143] = 501 to 1000 nM

What does the data say about its IC50? Entry: Cc1ccc(-c2cc(C(=O)NCc3cnc(C)nc3)cc(C(=O)N3CCN(C)C(=O)C3)c2)cc1 [Compound 27]
501 to 1000 nM

What does the data say about its IC50? Entry: Cc1ccc(-c2cc(C(=O)NCc3ccc(C)nc3)cc(C(=O)N3CCCC3)c2)nc1 [Compound 122]
< 100 nM

What does the data say about its IC50? Entry: Cc1ccc(-c2cc(C(=O)NCc3ccc(C(F)(F)F)c(F)c3)cc(C(=O)N3CC[C@@H](O)C3)c2)nc1 [Compound 151]
100 to 500 nM

What does the data say about its IC50? Entry: CCCS(=O)(=O)c1cc(C(=O)N[C@H](C)c2cnc(C)nc2)cc(-c2ccc(C)cc2)c1 [Compound 55]
< 100 nM

What does the data say about its IC50? Entry: Cc1ccc(-c2cc(C(=O)NCc3ccc(C)nc3)cc(C(=O)N3CCNC(C)C3)c2)cc1 (stereo not shown) [Compound 126]
100 to 500 nM

What does the data say about its IC50? Entry: Cc1ccc(-c2cc(C(=O)NCc3cnc(C)nc3)cc(C(=O)N3CC(O)C3)c2)cc1 [Compound 29]
< 100 nM

What does the data say about its IC50? Entry: CCCS(=O)(=O)c1cc(C(=O)NCc2ccn3ccnc3c2)cc(-c2ccc(C)cc2)c1 [Compound 57]
< 100 nM

What does the data say about its IC50? Entry: Cc1ccc(-c2cc(C(=O)NCc3ccc(C)nc3)cc(C(=O)N3CC[C@@H](O)C3)c2)cc1 [Compound 94]
< 100 nM

What does the data say about its IC50? Entry: Cc1ccc(-c2cc(C(=O)NCc3cnc(C)nc3)cc(C(=O)N3CCCC3)c2)nc1 [Compound 28]
100 to 500 nM

What does the data say about its IC50? Entry: Cc1ccc(CNC(=O)c2cc(-c3ccc(C)c(F)c3)cc(S(C)(=O)=O)c2)cn1 [Compound 137]
100 to 500 nM

What does the data say about its IC50? Entry: Cc1ccc(-c2cc(C(=O)N[C@H](C)c3cnc(C)c(Cl)c3)cc(C(=O)N3CCCC3)c2)cc1 [Compound 104]
100 to 500 nM
